Source listed as ChEMBL document CHEMBL1156632.

# Tested on: K562
# TEST NAME: Cytotoxicity against human K562 cells assessed as radioactive thymidine incorporation after 24 hrs
# Assay type: cell-based
# TEST CONDITIONS: k562, 24 h, 24 h
ENDPOINT: CC50 (µM)
Give a bare numeral; the unit µM is implied.

Consider the molecule CCCCCCCCCCCCC[C@@H]1C[C@H](O)C[C@@]2(CCC3(C=CC(=O)C=C3)O2)O1 and give its measured CC50.
25.5

Which CC50 value is on record for CCCCCCCCCCCCC[C@@H]1C[C@@H](O)C[C@]2(CCC3(C=CC(=O)C=C3)O2)O1 [ACULEATIN A] ?
28

Given the entry CCCCCCCCCCCCC[C@@H]1CC(O)CC2(CCC3(C=CC(=O)C=C3)O2)O1 (single isomer, unassigned; form 1) [ACULEATINS B] , report its measured CC50.
30.2

###

# TEST NAME: Cytotoxicity against human K562 cells assessed as radioactive thymidine incorporation after 24 hrs
# Type: cell-based
# TEST CONDITIONS: K562 cells
Would you mind telling me the reported CC50 at 24 h of each entry?
Field: numeric (µM). Do not append units.

What does the data say about its CC50 at 24 h? Entry: CCCCCCCCCCCCCCCCCCOC(=O)C[C@H]1C[C@H](O)C[C@@]2(CCC3(C=CC(=O)C=C3)O2)O1 (racemic)
13.9

Record request: CC50 at 24 h value, item CCCCCCCCCCCCC[C@@H]1CC(O)CC2(CCC3(C=CC(=O)C=C3)O2)O1 (single isomer, unassigned; form 3) [ACULEATINS B]
30.8

What value of CC50 at 24 h has been reported for the following compound? CCCCCCCCCCCCCC(=O)OC1C[C@]2(CCC3(C=CC(=O)C=C3)O2)O[C@]2(CCC3(C=CC(=O)C=C3)O2)C1 (some centres not stated)
11.3

Look up CC50 at 24 h for this compound: CCCCCCCCCCOC(=O)C[C@H]1C[C@H](O)C[C@@]2(CCC3(C=CC(=O)C=C3)O2)O1 (stereo in doubt)
28.2

Consider the compound CCCCCCCCCCCCC[C@@H]1C[C@@H](O)C[C@]2(CCC3(CCC(=O)CC3)O2)O1 (racemic) and give its measured CC50 at 24 h.
25.6

Return reported CC50 at 24 h; argument: CCCCCCCCCCOC(=O)C[C@@H]1C[C@@H](O)C[C@]2(CCC3(C=CC(=O)C=C3)O2)O1 (stereo in doubt)
41.2

Returns the measured CC50 at 24 h for the input compound. Input: CCN(CC)CCCC(C)Nc1ccnc2cc(Cl)ccc12 (configuration not stated)
9.7

###

# Test system: Plasmodium falciparum
# TEST NAME: Antimalarial activity against Plasmodium falciparum 3D7 in human erythrocytes after 48hrs by [3H]hypoxanthine uptake
# Assay type: functional, organism-based
# TEST CONDITIONS: Plasmodium falciparum, 3D7
So I've got a bunch of compounds here, and I need their pIC50 values.
# log scale: pIC50 equals minus log10 of the concentration in mol/L

Test system Plasmodium falciparum; read-out pIC50; what value for CCCCCCC(=O)O[C@@H]1C[C@]2(CCC3(C=CC(=O)C=C3)O2)O[C@]2(CCC3(C=CC(=O)C=C3)O2)C1 ?
6.46

# get_value(readout= pIC50, system= Plasmodium falciparum) for CCCCCCCCCCCCCCCCCCOC(=O)C[C@H]1C[C@@H](O)C[C@@]2(CCC3(C=CC(=O)C=C3)O2)O1 (racemic)
5.99

Any idea what pIC50 came out for CCCCCCCCCCCCCC(=O)O[C@@H]1C[C@]2(CCC3(C=CC(=O)C=C3)O2)O[C@]2(CCC3(C=CC(=O)C=C3)O2)C1 on Plasmodium falciparum?
7.09

Recorded pIC50 for CCCCCCCCCCCCC[C@@H]1CC(O)CC2(CCC3(C=CC(=O)C=C3)O2)O1 (single isomer, unassigned; form 2) with Plasmodium falciparum, please?
6.47

What value of pIC50 on Plasmodium falciparum does CCCCCCCCCCCCC[C@@H]1CC(O)CC2(CCC3(C=CC(=O)C=C3)O2)O1 (single isomer, unassigned; form 3) [ACULEATINS B] have?
6.44

###

# TEST NAME: Cytotoxicity against human K562 cells assessed as radioactive thymidine incorporation after 24 hrs
# Format: cell-based
# TEST CONDITIONS: K562 cells
Param label: returns label 1 when CC50 at 24 h < 20 µM, returns label 0 otherwise, including exact equality.

Is 20 µM strictly greater than the compound's reported CC50 at 24 h? compound: CCCCCCCCCCCCCC(=O)O[C@@H]1C[C@]2(CCC3(C=CC(=O)C=C3)O2)O[C@]2(CCC3(C=CC(=O)C=C3)O2)C1
label 1

Decide: CC50 at 24 h of O=C1C=CC2(C=C1)CC[C@]1(C[C@@H](O)C[C@@]3(CCC4(C=CC(=O)C=C4)O3)O1)O2 strictly below 20 µM?
label 1

Below 20 µM on CC50 at 24 h? Entry CCCCCCCCCCCCCC1C[C@H](O)CC2(CCC3(C=CC(=O)C=C3)O2)O1 (single isomer, unassigned)
label 0

Is CC50 at 24 h strictly under 20 µM for the entry CCCCCCCCCCCCCCCCCCOC(=O)C[C@H]1C[C@@H](O)C[C@@]2(CCC3(C=CC(=O)C=C3)O2)O1 (racemic) ?
label 1

Does the reported CC50 at 24 h of CCCCCCCCCCCCCCCCCCOC(=O)C[C@H]1C[C@@H](O)C[C@]2(CCC3(C=CC(=O)C=C3)O2)O1 (racemic) stay below 20 µM?
label 1

I wonder whether CCCCCCCCCCCCC[C@@H]1CC(O)CC2(CCC3(C=CC(=O)C=C3)O2)O1 (single isomer, unassigned; form 2) has CC50 at 24 h below 20 µM. Can you tell?
label 0

CC50 at 24 h strictly < 20 µM for this compound? CCCCCCCCCCCCCC1C[C@@H](O)CC2(CCC3(C=CC(=O)C=C3)O2)O1 (single isomer, unassigned) [ACULEATIN A]
label 0

Identify whether the compound CCCCCCC(=O)OC1C[C@]2(CCC3(C=CC(=O)C=C3)O2)O[C@]2(CCC3(C=CC(=O)C=C3)O2)C1 (stereo not given in full) records CC50 at 24 h below 20 µM.
label 1

# TODO verify CC50 at 24 h < 20 µM strictly for this compound: CCCCCCN(CCCCCC)C(=O)C[C@H]1C[C@H](O)C[C@@]2(CCC3(C=CC(=O)C=C3)O2)O1 (racemic)
label 1

Criterion: CC50 at 24 h strictly below 20 µM. Is it met by CCCCCCCCCCCCCC(=O)CC(=O)O[C@@H]1C[C@]2(CCC3(C=CC(=O)C=C3)O2)O[C@]2(CCC3(C=CC(=O)C=C3)O2)C1 ?
label 1

Hi there! Is CC50 at 24 h for CCCOC(=O)C[C@H]1C[C@H](O)C[C@@]2(CCC3(C=CC(=O)C=C3)O2)O1 (racemic) below 20 µM, do you know?
label 0

Strictly below 20 µM: is that where CC50 at 24 h of CCCCCCCCCCC(CCCCCCCCCC)OC(=O)C[C@H]1C[C@H](O)C[C@@]2(CCC3(C=CC(=O)C=C3)O2)O1 (racemic) sits?
label 0

# TODO verify CC50 at 24 h < 20 µM strictly for this compound: CCCCCCCCCCCCC[C@@H](O)C[C@@H](O)CC(=O)CCc1ccc(O)cc1
label 0

# TODO verify CC50 at 24 h < 20 µM strictly for this compound: CCCCCCC(=O)O[C@@H]1C[C@]2(CCC3(C=CC(=O)C=C3)O2)O[C@]2(CCC3(C=CC(=O)C=C3)O2)C1
label 1

Hello, I'm reviewing records and need to know if CC50 at 24 h of CCCCCCCCCCCCC[C@H]1C[C@@H](O)C[C@]2(CCC3(C=CC(=O)C=C3)O2)O1 [(+)-ACULEATIN B] is below 20 µM. Could you check?
label 0

###

# System: Plasmodium falciparum
# TEST NAME: Antimalarial activity against Plasmodium falciparum 3D7 in human erythrocytes after 48hrs by [3H]hypoxanthine uptake
# Assay type: functional, organism-based
# TEST CONDITIONS: Plasmodium falciparum, 3D7
Kindly state IC50 for each of the entries shown.
Write the answer as a number in nM, unit excluded.

So what's the measured IC50 for this one? CCCOC(=O)C[C@H]1C[C@H](O)C[C@@]2(CCC3(C=CC(=O)C=C3)O2)O1 (racemic)
1840

Any idea what its IC50 is? The molecule is CCCCCCCCCCCCCC(=O)OC1C[C@]2(CCC3(C=CC(=O)C=C3)O2)O[C@]2(CCC3(C=CC(=O)C=C3)O2)C1 (stereo partly specified)
92

Requested read-out: IC50. Entry: CCCCCCCCCCCCCCCCCCOC(=O)C[C@H]1C[C@H](O)C[C@@]2(CCC3(C=CC(=O)C=C3)O2)O1 (racemic)
770

What measured IC50 goes with CCCCCCCCCCCCCCCCCCOC(=O)C[C@H]1C[C@@H](O)C[C@]2(CCC3(C=CC(=O)C=C3)O2)O1 (racemic) ?
1130

Sample CCCCCCC(=O)OC1C[C@]2(CCC3(C=CC(=O)C=C3)O2)O[C@]2(CCC3(C=CC(=O)C=C3)O2)C1 (stereo partly specified) — what was its IC50?
331

Given the molecule CCCCCCCCCCCCCC1C[C@H](O)CC2(CCC3(C=CC(=O)C=C3)O2)O1 (single isomer, unassigned) , what is its reported IC50?
329

Entry under review: CCCCCCCCCCC(CCCCCCCCCC)OC(=O)C[C@H]1C[C@H](O)C[C@@]2(CCC3(C=CC(=O)C=C3)O2)O1 (racemic) . Reported IC50?
1150

IC50 for O=C1C=CC2(C=C1)CC[C@]1(CC(O)C[C@]3(CCC4(C=CC(=O)C=C4)O3)O1)O2 (stereo partly specified) ?
584

Entry CCCCCCN(CCCCCC)C(=O)C[C@H]1C[C@H](O)C[C@@]2(CCC3(C=CC(=O)C=C3)O2)O1 (racemic) : reported IC50 = ?
899

Report IC50 for CCCCCCCCCCCCCC(=O)CC(=O)O[C@@H]1C[C@]2(CCC3(C=CC(=O)C=C3)O2)O[C@]2(CCC3(C=CC(=O)C=C3)O2)C1 please.
120

Would you kindly share the measured IC50 for CCCCCCCCCCCCC[C@H]1C[C@@H](O)C[C@]2(CCC3(C=CC(=O)C=C3)O2)O1 [(+)-ACULEATIN B] ?
454

// IC50 lookup, key: CCCCCCCCCCOC(=O)C[C@@H]1C[C@@H](O)C[C@]2(CCC3(C=CC(=O)C=C3)O2)O1 (stereo in doubt)
1360

// query IC50 value for entry CCCCCCCCCCOC(=O)C[C@H]1C[C@H](O)C[C@@]2(CCC3(C=CC(=O)C=C3)O2)O1 (stereo in doubt)
654

Param item = O=C1C=CC2(C=C1)CC[C@]1(C[C@@H](O)C[C@@]3(CCC4(C=CC(=O)C=C4)O3)O1)O2 ; retrieve measured IC50.
414
